tested on: OVCAR-4 ovarian; experiment: NCI tumour cell line growth inhibition, 48 h
In this section, each of the molecules is paired with its reported GI50.

molecule=COc1cc2c3c(n(CCCCN)c(=O)c2cc1OC)-c1cc2c(cc1C3=O)OCO2 result="719 nM"
molecule=NC(=O)c1ccccc1Nc1ccc2nnc(-c3ccncc3)n2n1 result="15100 nM"
molecule=O=C(Cn1c(=O)c(-c2ccccc2)nc2ccccc21)Nc1ccc(F)cc1 result="47300 nM"
molecule=CNC(=O)c1cccc2cc(Oc3ccnc4cc(OCC5(N)CC5)c(OC)cc34)ccc12 result="2890 nM"

Recorded GI50 (molecule COc1ccc(C(=O)/C=C/c2cccc([N+](=O)[O-])c2)c(OC)c1 ): 2110 nM

Kindly note the recorded GI50 for CCN(Cc1ccc(F)cc1)c1ccc(CO)c(F)c1 , which is 3930 nM

Value of measured GI50 for the entry COCCCC(NC(=O)C(CC(C)C)NC(=O)OCc1ccc(OC)cc1)C(N)=O (stereo not drawn) : 47.2 µg/mL

Lab note: CCC(C)[C@H]1O[C@]2(C=C[C@@H]1C)C[C@@H]1C[C@@H](C/C=C(\C)[C@@H](OC3C[C@H](OC)C(O[C@H]4C[C@H](OC)[C@@H](O)[C@H](C)O4)[C@H](C)O3)[C@@H](C)/C=C/C=C3\CO[C@@H]4[C@H](O)C(C)=C[C@@H](C(=O)O1)[C@]34O)O2 (stereo partly drawn) gave GI50 of 1670 nM
